Some molecules, each annotated with its measured pEC50.
- Assay System: JAK3 (Mus musculus, UniProt Q62137)
- Construct: endogenous in cells
- Sequence (Q62137 whole entry): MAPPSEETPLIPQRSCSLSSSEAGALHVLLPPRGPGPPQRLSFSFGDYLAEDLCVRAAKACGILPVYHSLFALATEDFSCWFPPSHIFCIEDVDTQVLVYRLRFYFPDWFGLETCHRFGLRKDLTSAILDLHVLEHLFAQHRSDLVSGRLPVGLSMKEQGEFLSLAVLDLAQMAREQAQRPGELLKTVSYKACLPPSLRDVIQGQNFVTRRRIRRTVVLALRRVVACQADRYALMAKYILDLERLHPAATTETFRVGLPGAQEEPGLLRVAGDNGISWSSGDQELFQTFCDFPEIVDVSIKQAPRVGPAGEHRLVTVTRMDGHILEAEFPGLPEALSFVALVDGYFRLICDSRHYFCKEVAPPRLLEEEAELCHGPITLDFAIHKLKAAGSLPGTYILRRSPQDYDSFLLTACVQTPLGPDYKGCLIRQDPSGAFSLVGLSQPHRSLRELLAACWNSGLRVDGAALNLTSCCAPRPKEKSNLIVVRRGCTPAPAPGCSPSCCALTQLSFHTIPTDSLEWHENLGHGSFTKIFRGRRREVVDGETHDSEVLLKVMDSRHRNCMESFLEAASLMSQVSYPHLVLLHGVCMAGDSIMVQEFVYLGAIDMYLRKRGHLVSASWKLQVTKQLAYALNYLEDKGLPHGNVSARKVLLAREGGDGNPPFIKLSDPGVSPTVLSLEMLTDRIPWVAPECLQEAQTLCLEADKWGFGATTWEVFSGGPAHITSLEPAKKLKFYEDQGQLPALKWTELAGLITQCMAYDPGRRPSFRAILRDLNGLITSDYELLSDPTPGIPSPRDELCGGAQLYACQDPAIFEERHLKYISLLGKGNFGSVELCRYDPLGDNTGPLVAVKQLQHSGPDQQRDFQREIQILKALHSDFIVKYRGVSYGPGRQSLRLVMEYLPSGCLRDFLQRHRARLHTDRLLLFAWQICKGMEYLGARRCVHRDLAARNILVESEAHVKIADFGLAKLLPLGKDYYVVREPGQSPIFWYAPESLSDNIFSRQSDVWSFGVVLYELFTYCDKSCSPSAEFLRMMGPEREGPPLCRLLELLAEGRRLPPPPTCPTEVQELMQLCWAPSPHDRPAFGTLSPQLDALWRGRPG
- Experimental Protocol: JAKs cell activity test: JAK3_pSTAT5 in IL-2-induced CTLL-2 cells
- Applied Conditions: pSTAT5, IL-2-induced CTLL-2 cells
pEC50: −log10 of the molar value.

These solved cases illustrate the format of a correct answer.
| Molecule | Value |
| --- | --- |
| CN1CCOCCOc2cc(Nc3nc(-c4cnn(C(CC#N)C5CCCC5)c4)c4cc[nH]c4n3)ccc2OCC1 (centres unmarked) [Example 26] | 5.30 to 6.30 |
| C=CC(=O)Nc1cccc(Nc2nc(Nc3ccc4c(c3)OCCN(C)CCO4)ncc2Cl)c1 [Example 55] | 6.30 to 7.30 |
| CN1CCOc2ccc(Nc3nc(-c4cnn(C(CC#N)C5CCCC5)c4)c4cc[nH]c4n3)cc2OCC1 (centres unmarked) [Example 27] | > 7.30 |
| CCS(=O)(=O)N1CC(CC#N)(n2cc(-c3nc(Nc4ccc5c(c4)OCCN(C)CCO5)nc4[nH]ccc34)cn2)C1 [Example 28] | > 7.30 |

// next item, pEC50 requested
// returns reported pEC50 for input C=CC(=O)Nc1cccc(Nc2nc(Nc3ccc4c(c3)OCCOCCN(C)CCO4)ncc2Cl)c1 [Example 54]
6.30 to 7.30

###

Parameter pIC50: see the listing below.
- Assay System: LRRK2 (Homo sapiens, UniProt Q5S007)
- Sequence (Q5S007 whole entry): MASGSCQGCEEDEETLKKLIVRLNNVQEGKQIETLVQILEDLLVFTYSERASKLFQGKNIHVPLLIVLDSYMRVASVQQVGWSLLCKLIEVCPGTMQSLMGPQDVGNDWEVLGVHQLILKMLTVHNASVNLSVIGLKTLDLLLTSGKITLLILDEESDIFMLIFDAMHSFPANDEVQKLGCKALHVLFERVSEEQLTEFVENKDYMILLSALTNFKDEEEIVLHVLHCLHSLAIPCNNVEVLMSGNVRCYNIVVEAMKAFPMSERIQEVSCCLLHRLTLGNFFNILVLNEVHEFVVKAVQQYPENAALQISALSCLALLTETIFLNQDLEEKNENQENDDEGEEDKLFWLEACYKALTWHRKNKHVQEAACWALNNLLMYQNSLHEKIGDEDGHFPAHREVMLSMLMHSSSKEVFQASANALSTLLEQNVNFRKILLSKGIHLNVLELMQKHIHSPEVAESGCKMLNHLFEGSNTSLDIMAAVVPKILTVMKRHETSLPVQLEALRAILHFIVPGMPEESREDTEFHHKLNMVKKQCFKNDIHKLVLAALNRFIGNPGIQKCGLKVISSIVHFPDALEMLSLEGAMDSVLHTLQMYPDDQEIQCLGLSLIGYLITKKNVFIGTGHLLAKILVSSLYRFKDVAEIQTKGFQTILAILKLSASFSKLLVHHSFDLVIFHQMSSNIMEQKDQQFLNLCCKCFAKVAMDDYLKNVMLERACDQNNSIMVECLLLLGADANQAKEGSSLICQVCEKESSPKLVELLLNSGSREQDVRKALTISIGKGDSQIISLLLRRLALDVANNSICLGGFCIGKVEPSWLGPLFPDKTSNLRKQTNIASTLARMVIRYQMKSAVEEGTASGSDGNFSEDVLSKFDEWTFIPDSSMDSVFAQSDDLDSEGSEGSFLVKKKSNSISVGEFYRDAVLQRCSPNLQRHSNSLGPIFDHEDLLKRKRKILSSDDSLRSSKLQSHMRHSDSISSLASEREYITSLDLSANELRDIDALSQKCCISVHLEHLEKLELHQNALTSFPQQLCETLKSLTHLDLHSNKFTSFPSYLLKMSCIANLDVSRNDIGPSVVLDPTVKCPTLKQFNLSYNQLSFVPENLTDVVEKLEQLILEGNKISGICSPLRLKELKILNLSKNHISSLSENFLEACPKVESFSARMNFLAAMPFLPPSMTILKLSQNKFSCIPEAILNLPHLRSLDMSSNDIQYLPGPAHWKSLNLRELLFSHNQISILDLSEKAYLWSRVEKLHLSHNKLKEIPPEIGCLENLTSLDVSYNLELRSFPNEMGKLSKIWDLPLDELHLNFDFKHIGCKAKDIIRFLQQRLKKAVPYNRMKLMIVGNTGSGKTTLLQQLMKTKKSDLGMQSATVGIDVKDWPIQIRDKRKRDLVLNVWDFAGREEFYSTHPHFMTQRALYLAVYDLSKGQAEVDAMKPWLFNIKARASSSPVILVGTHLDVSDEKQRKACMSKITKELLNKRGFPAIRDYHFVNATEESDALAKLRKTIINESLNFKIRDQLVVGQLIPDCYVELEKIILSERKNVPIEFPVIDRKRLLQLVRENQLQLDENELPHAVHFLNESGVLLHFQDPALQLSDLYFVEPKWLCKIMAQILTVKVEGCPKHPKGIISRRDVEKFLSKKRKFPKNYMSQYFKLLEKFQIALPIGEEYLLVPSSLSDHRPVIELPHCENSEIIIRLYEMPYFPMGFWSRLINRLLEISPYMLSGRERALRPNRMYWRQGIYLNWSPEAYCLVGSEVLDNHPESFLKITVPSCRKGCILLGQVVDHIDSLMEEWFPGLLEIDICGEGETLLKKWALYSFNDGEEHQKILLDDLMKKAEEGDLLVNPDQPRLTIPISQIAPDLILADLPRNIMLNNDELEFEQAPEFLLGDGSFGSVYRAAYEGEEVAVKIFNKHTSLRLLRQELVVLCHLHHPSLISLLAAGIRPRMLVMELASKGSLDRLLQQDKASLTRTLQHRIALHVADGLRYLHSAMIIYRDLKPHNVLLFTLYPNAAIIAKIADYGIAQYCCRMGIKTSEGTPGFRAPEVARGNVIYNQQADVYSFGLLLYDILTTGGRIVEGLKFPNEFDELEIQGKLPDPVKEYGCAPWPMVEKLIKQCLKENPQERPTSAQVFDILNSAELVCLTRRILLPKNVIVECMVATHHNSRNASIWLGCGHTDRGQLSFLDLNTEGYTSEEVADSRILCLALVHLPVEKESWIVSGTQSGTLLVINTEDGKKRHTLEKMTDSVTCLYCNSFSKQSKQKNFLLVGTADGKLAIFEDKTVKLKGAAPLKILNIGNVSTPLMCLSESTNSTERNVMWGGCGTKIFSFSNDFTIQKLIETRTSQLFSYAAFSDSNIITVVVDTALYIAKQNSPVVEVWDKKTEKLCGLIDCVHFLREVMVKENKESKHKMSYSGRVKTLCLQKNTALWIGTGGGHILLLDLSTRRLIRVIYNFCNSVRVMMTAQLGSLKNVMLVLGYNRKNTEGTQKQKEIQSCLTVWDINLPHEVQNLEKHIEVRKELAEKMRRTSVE
- Experimental Protocol: experiment of inhibiting kinase activity, LRRK2
- Type: biochemical
- Applied Conditions: kinase activity assay, Table 3
pIC50: −log10 of the molar value.

| Molecular String | pIC50 |
| --- | --- |
| CN1CCOCCOc2ccc(Nc3nc(Nc4cccc(S(=O)(=O)NC(C)(C)C)c4)c4cc[nH]c4n3)cc2OCC1 | > 7.30 |

API: value(readout=pIC50, system=LRRK2 (Homo sapiens, UniProt Q5S007)) for record CN1CCOCCOc2cc(Nc3nc(Nc4ccccc4P(C)(C)=O)c4cc[nH]c4n3)ccc2OCC1
> 7.30

Item: CC(=O)N1CCOCCOc2cc(Nc3nc(Nc4ccccc4S(=O)(=O)C(C)C)c4cc[nH]c4n3)ccc2OCC1
> 7.30

Input CN1CCOCCOc2cc(Nc3nc(Nc4ccccc4NS(C)(=O)=O)c4cc[nH]c4n3)ccc2OCC1
> 7.30

What would you report for CN1CCOc2ccc(Nc3nc(-c4ccc(C(=O)NCC#N)cc4)c4cc[nH]c4n3)cc2OCC1 ?
> 7.30

Please answer likewise for CN1CCOc2ccc(Nc3nc(Nc4cccc(S(=O)(=O)NC(C)(C)C)c4)c4cc[nH]c4n3)cc2OCC1
6.70 to 7.30

Now consider CN1CCOc2ccc(Nc3ncc(F)c(-c4cn(C)c5ccccc45)n3)cc2OCC1 and answer again.
6.70 to 7.30

###

Known inhibition at 0.01 µM of a selection of molecules
- Assay System: JAK3 (Homo sapiens, UniProt P52333)
- Sequence (P52333 1-1124): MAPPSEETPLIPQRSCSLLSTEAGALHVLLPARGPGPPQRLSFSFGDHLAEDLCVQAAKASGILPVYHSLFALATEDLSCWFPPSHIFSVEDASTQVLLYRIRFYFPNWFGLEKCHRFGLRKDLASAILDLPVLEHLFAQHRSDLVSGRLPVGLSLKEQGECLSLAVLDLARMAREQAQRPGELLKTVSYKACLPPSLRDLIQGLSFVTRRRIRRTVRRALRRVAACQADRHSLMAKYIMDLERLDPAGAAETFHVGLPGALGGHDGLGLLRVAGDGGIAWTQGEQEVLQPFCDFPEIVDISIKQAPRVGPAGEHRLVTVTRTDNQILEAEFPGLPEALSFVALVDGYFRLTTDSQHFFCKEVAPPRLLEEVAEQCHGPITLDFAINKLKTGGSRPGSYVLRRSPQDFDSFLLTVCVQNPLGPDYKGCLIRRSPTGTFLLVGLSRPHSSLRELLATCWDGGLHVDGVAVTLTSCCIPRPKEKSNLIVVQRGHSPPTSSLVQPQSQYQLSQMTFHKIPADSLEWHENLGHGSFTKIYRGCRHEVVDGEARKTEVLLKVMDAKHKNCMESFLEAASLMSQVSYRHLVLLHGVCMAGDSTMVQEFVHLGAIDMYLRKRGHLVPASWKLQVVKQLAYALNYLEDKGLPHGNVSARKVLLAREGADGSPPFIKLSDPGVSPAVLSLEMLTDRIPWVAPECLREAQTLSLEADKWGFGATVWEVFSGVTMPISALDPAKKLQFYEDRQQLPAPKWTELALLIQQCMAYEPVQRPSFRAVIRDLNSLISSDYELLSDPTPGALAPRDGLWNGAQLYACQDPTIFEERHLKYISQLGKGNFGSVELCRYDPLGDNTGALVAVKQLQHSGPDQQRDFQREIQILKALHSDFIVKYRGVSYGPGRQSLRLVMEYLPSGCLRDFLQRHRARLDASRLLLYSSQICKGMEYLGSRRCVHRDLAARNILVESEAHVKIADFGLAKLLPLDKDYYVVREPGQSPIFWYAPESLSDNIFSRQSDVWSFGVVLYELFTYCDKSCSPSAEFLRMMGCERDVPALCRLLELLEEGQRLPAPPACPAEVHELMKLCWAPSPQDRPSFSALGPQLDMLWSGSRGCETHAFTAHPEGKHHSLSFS
- Experimental Protocol: experiment of inhibiting kinase activity (Caliper mobility shift assay), JAK3
- Assay type: biochemical
- Applied Conditions: at 10 nM; read-out: inhibition rate JAK3

| Molecule | inhibition at 0.01 µM |
| --- | --- |
| CN1CCOc2ccc(Nc3nc(Nc4ccccc4P(C)(C)=O)c4cc[nH]c4n3)cc2OCC1 | > 80% |

Given the entry CN1CCOCCOc2cc(Nc3nc(-c4ccc(C(=O)NCC#N)cc4)c4cc[nH]c4n3)ccc2OCC1 , report its measured inhibition at 0.01 µM.
40 to 79%

Here is the next molecule: CN1CCOCCOc2cc(Nc3nc(-c4cnn(C(CC#N)C5CCCC5)c4)c4cc[nH]c4n3)ccc2OCC1 (stereo not drawn)
> 80%

Would you mind doing CN1CCOCCOc2cc(Nc3nc(Nc4ccccc4NS(C)(=O)=O)c4cc[nH]c4n3)ccc2OCC1 as well?
40 to 79%

Next entry: CC(C)S(=O)(=O)c1ccccc1Nc1nc(Nc2ccc3c(c2)OCCOCCNCCO3)nc2[nH]ccc12
40 to 79%

Please give the result for CN1CCOCCOc2cc(Nc3nc(-c4cnn([C@@H](CC#N)C5CCCC5)c4)c4cc[nH]c4n3)ccc2OCC1 too.
> 80%

Can you handle CN1CCOc2ccc(Nc3nc(-c4cnn([C@@H](CC#N)C5CCCC5)c4)c4cc[nH]c4n3)cc2OCC1 next?
> 80%

Consider next the molecule CC(C)S(=O)(=O)c1ccccc1Nc1nc(Nc2ccc3c(c2)OCCOCCN(C)CCO3)nc2[nH]cnc12 in the same way.
40 to 79%

###

inhibition at 0.01 µM: recorded values
- Assay System: UniProtKB O60674
- Sequence (O60674 whole entry): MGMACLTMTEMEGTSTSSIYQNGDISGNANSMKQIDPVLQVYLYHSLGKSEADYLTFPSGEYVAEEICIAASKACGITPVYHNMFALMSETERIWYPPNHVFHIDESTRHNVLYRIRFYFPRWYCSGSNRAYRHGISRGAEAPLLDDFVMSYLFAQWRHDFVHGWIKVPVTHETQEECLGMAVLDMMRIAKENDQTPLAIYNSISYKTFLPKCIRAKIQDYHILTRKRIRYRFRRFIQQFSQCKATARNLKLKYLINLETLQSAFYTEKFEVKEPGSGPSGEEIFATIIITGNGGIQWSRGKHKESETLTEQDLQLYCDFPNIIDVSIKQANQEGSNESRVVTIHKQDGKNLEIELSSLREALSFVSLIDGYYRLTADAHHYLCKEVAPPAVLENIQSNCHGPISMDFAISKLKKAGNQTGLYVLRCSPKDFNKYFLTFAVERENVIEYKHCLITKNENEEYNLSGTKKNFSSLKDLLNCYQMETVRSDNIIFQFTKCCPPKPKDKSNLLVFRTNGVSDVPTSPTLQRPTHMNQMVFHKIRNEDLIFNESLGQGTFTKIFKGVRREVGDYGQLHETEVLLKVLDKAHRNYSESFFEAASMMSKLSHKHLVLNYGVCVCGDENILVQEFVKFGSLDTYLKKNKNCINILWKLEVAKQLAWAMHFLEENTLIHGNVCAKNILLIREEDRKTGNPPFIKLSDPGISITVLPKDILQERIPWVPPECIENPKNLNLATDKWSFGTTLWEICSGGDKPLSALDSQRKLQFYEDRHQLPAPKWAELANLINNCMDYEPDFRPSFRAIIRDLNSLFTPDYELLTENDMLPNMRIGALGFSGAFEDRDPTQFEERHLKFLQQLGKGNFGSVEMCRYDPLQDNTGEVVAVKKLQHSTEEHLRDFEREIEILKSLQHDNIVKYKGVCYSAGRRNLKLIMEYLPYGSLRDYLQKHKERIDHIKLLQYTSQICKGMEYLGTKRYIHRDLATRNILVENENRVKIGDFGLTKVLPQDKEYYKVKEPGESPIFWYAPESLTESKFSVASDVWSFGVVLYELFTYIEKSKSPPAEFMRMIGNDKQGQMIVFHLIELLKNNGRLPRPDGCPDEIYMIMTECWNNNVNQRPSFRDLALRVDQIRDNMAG
- Experimental Protocol: experiment of inhibiting kinase activity (Caliper mobility shift assay), JAK2
- Type: biochemical
- Applied Conditions: at 10 nM; read-out: inhibition rate JAK2

Known inhibition at 0.01 µM results, listed for orientation:
| Molecule | inhibition at 0.01 µM |
| --- | --- |
| CC(C)S(=O)(=O)c1ccccc1Nc1nc(Nc2ccc3c(c2)OCCOCCN(S(C)(=O)=O)CCO3)nc2[nH]ccc12 [Example 99] | 40 to 79% |
| CN1CCOc2ccc(Nc3ncc(C(F)(F)F)c(Nc4ccccc4P(C)(C)=O)n3)cc2OCC1 [Example 83] | > 80% |
| CN1CCOCCOc2cc(Nc3ncc(F)c(Nc4cccc(S(=O)(=O)NC(C)(C)C)c4)n3)ccc2OCC1 [Example 9] | > 80% |

Reported inhibition at 0.01 µM for CC(C)S(=O)(=O)c1ccccc1Nc1nc(Nc2ccc3c(c2)OCCOCCNCCO3)nc2[nH]ccc12 [Example 97] : what is it?
> 80%

How about this molecule: CCS(=O)(=O)N1CC(CC#N)(n2cc(-c3nc(Nc4ccc5c(c4)OCCN(C)CCOCCO5)ncc3F)cn2)C1 [Example 43]
> 80%

Record: CN1CCOCCOc2cc(Nc3nc(-c4cnn(S(C)(=O)=O)c4)c4cc[nH]c4n3)ccc2OCC1 [Example 63]
40 to 79%

How about this molecule: CN1CCOCCOc2ccc(Nc3ncc(F)c(Nc4cccc(S(=O)(=O)NC(C)(C)C)c4)n3)cc2OCC1 [Example 40]
> 80%

Please do the same for CN1CCOc2ccc(Nc3nc(-c4cnn(C5CN(S(C)(=O)=O)C5)c4)c4cc[nH]c4n3)cc2OCC1 [Example 69] as well.
40 to 79%

Then CC(C)S(=O)(=O)c1ccccc1Nc1nc(Nc2ccc3c(c2)OCCN(C)CCO3)nc2[nH]ccc12 [Example 35] ?
40 to 79%

# iterate: CC(C)S(=O)(=O)c1ccccc1Nc1nc(Nc2ccc3c(c2)OCCN(C)CCOCCO3)nc2[nH]ccc12 [Example 53]
40 to 79%

Also need CC(C)S(=O)(=O)c1ccccc1Nc1nc(Nc2ccc3c(c2)OCCOCCN(C)CCO3)nc2[nH]ccc12 [Example 10] , thanks.
> 80%

And then CN1CCOCCOc2cc(Nc3nc(Nc4ccccc4P(C)(C)=O)c4cc[nH]c4n3)ccc2OCC1 [Example 32] , what is it?
40 to 79%

Next entry: CN1CCOc2ccc(Nc3nc(-c4cnn(C(CC#N)C5CCCC5)c4)c4cc[nH]c4n3)cc2OCC1 (stereo not drawn) [Example 27]
> 80%

Let us now turn to Cc1nc2c(F)cc(-c3nc(Nc4ccc5c(c4)OCCOCCN(C)CCO5)nc4[nH]ccc34)cc2n1C(C)C [Example 31]
40 to 79%

Note, next up: CN1CCOCCOc2cc(Nc3nc(-c4cnn(C(CC#N)C5CCCC5)c4)c4cc[nH]c4n3)ccc2OCC1 (stereo not drawn) [Example 26]
> 80%

These measurements were taken from patent EP4592286A1.
